Assay: chemical genetic growth profiling, strain panel (AID 1159580);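 further: tested at 20 µM; growth read once vehicle control cultures reached saturation at 30 °C; 1 = growth at the plate median or of vehicle wells; lower values mean less growth of the strain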
Conditions: S. cerevisiae deletion strains, growth OD, locus YDR195W, strain ref2
About 2,000 (36%) of roughly 5,500 compounds were called active. About 18% were inconclusive and are not listed. Some of the results follow.
Quantity: normalized growth

Compound	Data Value
C[C@H]1[C@H](C)CC[C@]2(C(=O)O)CC[C@]3(C)C(=CCC4[C@@]5(C)C[C@@H](O)[C@H](O)[C@@](C)(CO)C5[C@H](O)C[C@]43C)[C@H]12 (some centres undefined)	0.84
COC1CC(O[C@H]2CC[C@]3(C=O)C4CC[C@]5(C)C(C6=CC(=O)OC6)CC[C@]5(O)C4CC[C@]3(O)C2)OC(C)C1O (some centres undefined)	0.914
C[N+]1(C)C[C@H](O)[C@H](C(=O)[O-])C1	1.03
CCC(=O)NCC[C@@H]1CCc2ccc3c(c21)CCO3	1.01
CCC(=O)OCC(=O)[C@@]1(OC(=O)CC)[C@@H](C)CC2C3CCC4=CC(=O)C=C[C@]4(C)C3(F)[C@@H](O)C[C@@]21C (some centres undefined)	1
C=CCSCC=C	0.961
CCC(=O)O[C@]1(C(=O)CCl)[C@@H](C)CC2C3CCC4=CC(=O)C=C[C@]4(C)[C@@]3(F)[C@@H](O)C[C@@]21C (some centres undefined)	1.02
CC(C)c1cccc(O)c(=O)c1	0.166
C=CCSC[C@@H](N)C(=O)O	0.985
CC(C)c1cccc(C(C)C)c1O	0.951
CCc1ccc2c(O)c3c(cc2c1C(=O)OC)C(=O)c1c(O)ccc(O)c1C3=O	0.962
CN(C)C(=O)C(CCN1CCC(O)(c2ccc(Cl)cc2)CC1)(c1ccccc1)c1ccccc1	0.949
CNC[C@H](O)c1cccc(O)c1	0.91
CC1=CC(=O)C2C(C)(C)CCC[C@]2(C)[C@@]1(O)CCc1ccoc1 (some centres undefined)	1.08
Cc1ncc(CO)c(CO)c1O	1.03
CC[C@@]1(O)C(=O)OCc2c1cc1n(c2=O)Cc2cc3cc(O)ccc3nc2-1	1.01
CC1(C)Oc2ccc3ccc(=O)oc3c2CC1O (centres undefined)	0.971
NCC(O)CC(=O)O (centres undefined)	0.951
COc1ccc(-c2cc(=O)c3c(O)c(OC)c(O[C@H]4O[C@H](CO[C@@H]5O[C@@H](C)[C@H](O)[C@@H](O)[C@H]5O)[C@@H](O)[C@H](O)[C@H]4O)cc3o2)cc1	0.978
COC(=O)C(N)CS (centres undefined)	1.03
CC(=O)Oc1ccccc1C(=O)Oc1ccccc1C(=O)O	0.962
CC[C@@]1(O)C(=O)OCc2c1cc1n(c2=O)Cc2cc3ccccc3nc2-1	0.538
CC1(C)S[C@@H]2[C@H](NC(=O)[C@@H](N)c3ccc(O)cc3)C(=O)N2[C@H]1C(=O)O	0.98
C/C=C(\C)C(=O)O[C@@H]1c2c(ccc3ccc(=O)oc23)OC(C)(C)[C@@H]1OC(C)=O	1.06
Oc1ccc([C@H]2Oc3cc(O)cc(O)c3C[C@H]2O)cc1	0.933
CCn1nc(C(=O)O)c(=O)c2cc3c(cc21)OCO3	1.01
CC(C)C[C@@H](NC(=O)OCC1c2ccccc2-c2ccccc21)C(=O)O	0.945
C[C@H]1O[C@H](O[C@H]2[C@H](O)[C@@H](O)[C@@H](O[C@H]3[C@H](O)[C@@H](O)C(O)O[C@@H]3CO)O[C@@H]2CO)[C@H](O)[C@@H](O)[C@@H]1N[C@H]1C=C(CO)[C@@H](O)[C@H](O)[C@H]1O (some centres undefined)	0.936
CC1(C)[C@@H]2CC[C@@]1(C)C(=O)C2	0.972
CCC(=O)OCC(=O)C1(OC(=O)CC)C(C)CC2C3CCC4=CC(=O)C=CC4(C)C3(Cl)C(O)CC21C (centres undefined)	0.975
C[C@H]1[C@H](C)CC[C@]2(C(=O)O)CC[C@]3(C)C(=CCC4[C@@]5(C)C[C@@H](O)[C@H](O)[C@@](C)(CO)C5CC[C@]43C)[C@H]12 (some centres undefined)	0.945
Cc1ccc(-c2nc3ccc(C)cn3c2CC(=O)N(C)C)cc1	1
C=CCSSCC=C	1.04
CCCCC(=O)O[C@]1(C(=O)CO)[C@@H](C)CC2C3CCC4=CC(=O)C=C[C@]4(C)[C@@]3(F)C(O)C[C@@]21C (some centres undefined)	0.963
O=C(CCCN1CCC2(CC1)C(=O)NCN2c1ccccc1)c1ccc(F)cc1	1.01
CC(=O)N1CCN(c2ccc(OCC3CO[C@](Cn4ccnc4)(c4ccc(Cl)cc4Cl)O3)cc2)CC1 (some centres undefined)	0.254
O=c1c(O)cc([C@H]2Oc3cc(O)cc(O)c3C[C@H]2O)cc2c([C@H]3Oc4cc(O)cc(O)c4C[C@H]3O)cc(O)c(O)c12	1.04
COc1cc2c(cc1OC)-c1c(oc3cc(O)cc(O)c3c1=O)CO2	1.04
Oc1ccc2c3c1OC1[C@@H](O)CC[C@@]4(O)[C@@H](C2)N(CC2CCC2)CC[C@]314 (some centres undefined)	0.974

----------
Assay: chemical genetic growth profiling, strain panel (AID 1159580);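 further: tested at 20 µM; growth read once vehicle control cultures reached saturation at 30 °C; 1 = growth at the plate median or of vehicle wells; lower values mean less growth of the strain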
Conditions: S. cerevisiae deletion strains, growth OD, locus YOR080W, strain dia2
In all, about 5,500 compounds went through this assay and about 2,000 (36%) were called active. Not shown: some 18% with an inconclusive outcome. No stated cut-off is given here; in the data, active means normalized growth mostly below about 0.91 (no sharp cut-off); inconclusive means no clear call, values can overlap the other calls; inactive means mostly above about 0.92. This is one part of the list.
Classes used: true (active), false (inactive)

> print(dat)
                                    compound  group.label
 1  CC1CCCC(C)N1NC(=O)c1ccc(Cl)c(S(N)(=O)=O)c1 (configuration not stated)        false
 2  CC1(C)S[C@@H]2[C@H](NC(=O)[C@@H](N)c3ccc(O)cc3)C(=O)N2[C@H]1C(=O)O        false
 3                     CC(C)c1cccc(C(C)C)c1O        false
 4     O=C(CCCN1CCN(c2ccccn2)CC1)c1ccc(F)cc1        false
 5                     CC(C)c1cccc(O)c(=O)c1         true
 6  CC1Cc2ccccc2N1NC(=O)c1ccc(Cl)c(S(N)(=O)=O)c1 (configuration not stated)        false
 7  O=c1c(-c2ccc(O)cc2)coc2c(C3O[C@H](CO)[C@@H](O)[C@H](O)[C@H]3O)c(O)ccc12 (some centres not stated)        false
 8  O=c1c2cc(O)c(O)cc2oc2cc(O)c(C3O[C@H](CO)[C@H](O)[C@@H](O)[C@H]3O)c(O)c12 (some centres not stated)        false
 9  Cc1ccccc1N1C(=O)c2cc(S(N)(=O)=O)c(Cl)cc2NC1C (configuration not stated)        false
10  O=C1CC2(CCCC2)CC(=O)N1CCCCN1CCN(c2ncccn2)CC1        false
11  O=C(CCCN1CCC(O)(c2ccc(Cl)cc2)CC1)c1ccc(F)cc1        false
12  CC(C)C[C@@H](NC(=O)OCC1c2ccccc2-c2ccccc21)C(=O)O        false

----------
Assay: chemical genetic growth profiling, strain panel (AID 1159580);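 further: tested at 20 µM; growth read once vehicle control cultures reached saturation at 30 °C; 1 = growth at the plate median or of vehicle wells; lower values mean less growth of the strain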
Details: S. cerevisiae deletion strains, growth OD, locus YDR334W, strain swr1, active compounds read low
Hit rate of the full screen: of about 5,500 compounds, about 2,000 (36%) were called active. Not shown: some 18% with an inconclusive outcome. The list shows a part of the results.
Quantity: normalized growth

> print(dat)
                                    compound           quantity  data.value
 1   Cc1ccc(-c2nc3ccc(C)cn3c2CC(=O)N(C)C)cc1  normalized growth        1.02
 2  Cc1c(C(N)=O)cc([N+](=O)[O-])cc1[N+](=O)[O-]  normalized growth        1.02
 3                    COC1=CC(=O)C=C(OC)C1=O  normalized growth        1.01
 4  CC(=O)O[C@@H]1c2c(ccc3ccc(=O)oc23)OC(C)(C)[C@@H]1OC(=O)CC(C)C  normalized growth        1.01
 5  O=C(CCCN1CCC(O)(c2ccc(Cl)cc2)CC1)c1ccc(F)cc1  normalized growth        1.04
 6  NS(=O)(=O)c1cc2c(cc1C(F)(F)F)NC(Cc1ccccc1)NS2(=O)=O (stereo unspecified)  normalized growth       0.953
 7  CN[C@H]1CC[C@@H](c2ccc(Cl)c(Cl)c2)c2ccccc21  normalized growth        1.04
 8  CC1(C)Oc2ccc3ccc(=O)oc3c2CC1O (stereo unspecified)  normalized growth       0.982
 9  OC1(c2ccc(Cl)c(C(F)(F)F)c2)CCN(CCCC(c2ccc(F)cc2)c2ccc(F)cc2)CC1  normalized growth      0.0861
10  NC(=O)c1cc([N+](=O)[O-])cc([N+](=O)[O-])c1  normalized growth        1.03
11           CC1(C)[C@@H]2CC[C@@]1(C)C(=O)C2  normalized growth        1.01

Recorded values, source PubChem BioAssay AID1159580.
